Sourced from patent US20250026778A1

Listed compounds paired with reported inhibition at 20 µM
- Measured target: his-galectin-3 (Homo sapiens, UniProt P17931)
- Construct: purchased Abcam
- Sequence (P17931 whole entry): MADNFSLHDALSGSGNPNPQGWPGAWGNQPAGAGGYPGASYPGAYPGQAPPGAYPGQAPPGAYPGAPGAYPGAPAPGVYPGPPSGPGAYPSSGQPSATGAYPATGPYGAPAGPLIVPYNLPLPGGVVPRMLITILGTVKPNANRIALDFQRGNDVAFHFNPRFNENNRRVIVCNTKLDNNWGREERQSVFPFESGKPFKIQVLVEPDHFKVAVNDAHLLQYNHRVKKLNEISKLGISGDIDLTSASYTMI
- Experiment description: TR-FRET assay (in vitro galectin-3 binding inhibitory activity test)
- Assay context: read-out: % Inhibitory activity (at 20 μM), Table 1; compound at 20 μM; 60 nM his-galectin-3, 15 nM biotin-ASF

- Compound: "O=C(O[C@@H]1[C@@H](n2cc(-c3cc(F)c(F)c(F)c3)nn2)[C@@H](O)[C@@H](CO)O[C@@]12CCCO2)c1ccccc1F"
  inhibition at 20 µM: "25 to 50%"
- Compound: "C[C@@H](O[C@@H]1[C@@H](n2cc(-c3cc(F)c(F)c(F)c3)nn2)[C@@H](O)[C@@H](CO)O[C@@]12CCCCO2)C(=O)O"
  inhibition at 20 µM: "25 to 50%"
- Compound: "C[C@@H](O[C@@H]1[C@@H](n2cc(-c3cc(F)c(F)c(F)c3)nn2)[C@@H](O)[C@@H](CO)O[C@@]12CCCO2)C(=O)O"
  inhibition at 20 µM: "< 25%"
- Compound: "O=C(O[C@@H]1[C@@H](n2cc(-c3cc(F)c(F)c(F)c3)nn2)[C@@H](O)[C@@H](CO)O[C@@]12CCCCO2)c1ccccn1"
  inhibition at 20 µM: "50 to 75%"
- Compound: "O=C(c1cccc(Cl)c1)N1CCC[C@]2(C1)O[C@H](CO)[C@H](O)[C@H](n1cc(-c3cc(F)c(F)c(F)c3)nn1)[C@H]2O"
  inhibition at 20 µM: "< 25%"
- Compound: "O=C1CCCC2(N1)O[C@H](CO)[C@H](O)[C@H](n1cc(-c3cc(F)c(F)c(F)c3)nn1)[C@H]2O (stereo partly drawn)"
  inhibition at 20 µM: "< 25%"
- Compound: "Cc1ccc(S(=O)(=O)O[C@@H]2[C@@H](n3cc(-c4cc(F)c(F)c(F)c4)nn3)[C@@H](O)[C@@H](CO)O[C@@]23CCCO3)cc1"
  inhibition at 20 µM: "25 to 50%"
- Compound: "OC[C@H]1O[C@@]2(CCCO2)[C@H](OCc2cncc(F)c2)[C@@H](n2cc(-c3cc(F)c(F)c(F)c3)nn2)[C@H]1O"
  inhibition at 20 µM: "< 25%"
- Compound: "OC[C@H]1O[C@@]2(CCCO2)[C@H](OCc2cccc(Cl)c2)[C@@H](n2cc(-c3cc(F)c(F)c(F)c3)nn2)[C@H]1O"
  inhibition at 20 µM: "< 25%"
- Compound: "OC[C@H]1O[C@@]2(CCCO2)C(O)[C@@H](n2cc(-c3cc(F)c(F)c(F)c3)nn2)[C@H]1O (stereo in doubt)"
  inhibition at 20 µM: "< 25%"
- Compound: "O=C(N[C@@H]1CCO[C@]12O[C@H](CO)[C@H](O)[C@H](n1cc(-c3cc(F)c(F)c(F)c3)nn1)[C@H]2O)c1cccc(Cl)c1"
  inhibition at 20 µM: "> 75%"
- Compound: "OC[C@H]1O[C@@]2(CCCN(Cc3ccccc3)C2)[C@H](O)[C@@H](n2cc(-c3cc(F)c(F)c(F)c3)nn2)[C@H]1O"
  inhibition at 20 µM: "< 25%"
